List of Dmax values.
- assay system: BTK (Homo sapiens)
- Sequence (Q06187 whole entry): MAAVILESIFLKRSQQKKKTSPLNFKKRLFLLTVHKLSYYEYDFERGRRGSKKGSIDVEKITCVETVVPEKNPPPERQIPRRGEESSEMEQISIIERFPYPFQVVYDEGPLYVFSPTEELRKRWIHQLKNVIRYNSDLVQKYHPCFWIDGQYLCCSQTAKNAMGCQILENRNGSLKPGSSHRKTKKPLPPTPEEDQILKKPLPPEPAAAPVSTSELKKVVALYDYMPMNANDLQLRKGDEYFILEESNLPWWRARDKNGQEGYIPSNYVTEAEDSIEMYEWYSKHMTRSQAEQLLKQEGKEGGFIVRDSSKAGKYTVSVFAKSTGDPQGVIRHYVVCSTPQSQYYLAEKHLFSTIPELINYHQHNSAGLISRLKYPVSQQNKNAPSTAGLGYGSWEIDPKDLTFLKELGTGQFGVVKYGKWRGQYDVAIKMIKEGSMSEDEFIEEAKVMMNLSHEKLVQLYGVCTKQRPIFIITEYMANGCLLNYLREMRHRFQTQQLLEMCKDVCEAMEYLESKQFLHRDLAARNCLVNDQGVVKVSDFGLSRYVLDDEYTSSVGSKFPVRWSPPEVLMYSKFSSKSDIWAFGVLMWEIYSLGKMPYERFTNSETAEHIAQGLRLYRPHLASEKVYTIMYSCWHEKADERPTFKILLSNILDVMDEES
- test description: Degradation of BTK protein in Namalwa cells (Western blot; DC50, Dmax)
- conditions: read-out: Dmax (BTK degradation)

INSERT INTO assay_data (compound, result) VALUES
  ('Nc1ncnc2c1c(-c1ccc(Oc3ccccc3)cc1)nn2C1CCN(C[C@H]2CCN(C[C@H]3CCN(c4ccc5c(c4)C(=O)N(C4CCC(=O)NC4=O)C5=O)C3)C2)CC1 (some centres unmarked) [Compound 447a]', '> 90%'),
  ('Nc1ncnc2c1c(-c1ccc(Oc3ccccc3)cc1)nn2[C@@H]1CCCN(C2CN(C(=O)N3CC(N4CCN(c5ccc6c(c5)C(=O)N(C5CCC(=O)NC5=O)C6=O)CC4)C3)C2)C1 (some centres unmarked) [Compound 479]', '> 90%');

The measured Dmax that NC(=O)c1c(-c2ccc(Oc3ccccc3)cc2)nn2c1NCC[C@H]2C1CCN(CC2CCN(C(=O)N3CCN(C4CCN(c5ccc6c(c5)CN(C5CCC(=O)NC5=O)C6=O)CC4)CC3)CC2)CC1 (some centres unmarked) [Compound 402] showed for BTK (Homo sapiens) is > 90%

The measured Dmax that Nc1ncnc2c1c(-c1ccc(Oc3ccccc3)cc1)nn2C1CCN(CC2CN(CC3CN(c4ccc5c(c4)CN(C4CCC(=O)NC4=O)C5=O)C3)C2)CC1 (centres unmarked) [Compound 442] showed for BTK (Homo sapiens) is < 50%

The measured Dmax that Nc1ncnc2c1c(-c1ccc(Oc3ccccc3)cc1)nn2C1CCN(CCN2CCC(N3CCN(c4ccc5c(c4)C(=O)N(C4CCC(=O)NC4=O)C5=O)CC3)C2)CC1 (centres unmarked) [Compound 459] showed for BTK (Homo sapiens) is > 90%

* * *

- assay system: UniProt Q06187
- test description: BTK degradation, DC50 and Dmax of Table 1 (cell line not given)
- Assay type: cell-based
- Design: endogenous in cells
- conditions: concentration giving 50% reduction of BTK expression level
value kind: DC50

INSERT INTO assay_data (compound, value_kind, result) VALUES
  ('Nc1ncnc2c1c(-c1ccc(Oc3ccccc3)cc1)nn2C1CCN(C(=O)N2CCN(CCN3CCC(c4ccc5c(c4)C(=O)N(C4CCC(=O)NC4=O)C5=O)CC3)CC2)CC1 (centres unmarked) [Compound 99]', 'DC50', '10 to 50 nM');

The measured DC50 that Nc1ncnc2c1c(-c1ccc(Oc3ccccc3)cc1)nn2[C@@H]1CCCN(C(=O)N2CCN(CC3CCN(c4ccc5c(c4)CN(C4CCC(=O)NC4=O)C5=O)CC3)CC2)C1 (some centres unmarked) [Compound 58] showed for UniProt Q06187 is 10 to 50 nM

The measured DC50 that Nc1ncnc2c1c(-c1ccc(Oc3ccccc3)cc1)nn2[C@@H]1CCCN(C(=O)N2CCN(CCN3CCC(c4ccc5c(c4)CN(C4CCC(=O)NC4=O)C5=O)CC3)CC2)C1 (some centres unmarked) [Compound 70] showed for UniProt Q06187 is < 10 nM

The measured DC50 that Nc1ncnc2c1c(-c1ccc(Oc3ccccc3)cc1)nn2[C@@H]1CCCN(C2CCN(C(=O)N3CCN(CCCN4CCN(c5ccc6c(c5)CN(C5CCC(=O)NC5=O)C6=O)CC4)CC3)CC2)C1 (some centres unmarked) [Compound 188] showed for UniProt Q06187 is > 50 nM

The measured DC50 that Nc1ncnc2c1c(-c1ccc(Oc3ccccc3)cc1)nn2C1CCN(C(=O)N2CCC(CCCC3CCN(c4ccc5c(c4)C(=O)N(C4CCC(=O)NC4=O)C5=O)CC3)CC2)CC1 (centres unmarked) [Compound 125] showed for UniProt Q06187 is > 50 nM
